# solubility annotations
assay_summary: Water solubility of freeze-dried compounds in water (observation and HPLC)
Residues, ends and D or L forms follow the SMILES beside them. *: point of attachment. Doxorubicin(3'-N) = COc1cccc2c1C(=O)c1c(O)c3c(c(O)c1C2=O)C[C@@](O)(C(=O)CO)C[C@@H]3O[C@H]1C[C@H](N*)[C@H](O)[C@H](C)O1; Hexanoyl(6-maleimido) = O=C1C=CC(=O)N1CCCCCC(=O)*; Propanoyl(3-maleimido) = O=C1C=CC(=O)N1CCC(=O)*; PEG3 = NCCOCCOCCOCCC(=O)O

{"molecule": "COc1cccc2c1C(=O)c1c(O)c3c(c(O)c1C2=O)C[C@@](O)(C(=O)CO)C[C@@H]3O[C@H]1C[C@H](NC(=O)[C@H](CC(C)C)NC(=O)[C@H](CC(N)=O)NC(=O)[C@H](C)NC(=O)[C@H](C)NC(=O)[C@H](CC(=O)O)NC(=O)CCOCCOCCOCCNC(=O)CCN2C(=O)C=CC2=O)[C@H](O)[C@H](C)O1 [QHL-048] ({Propanoyl(3-maleimido)-PEG3}-DAANL-{Doxorubicin(3'-N)})", "solubility": "> 20 mg/mL"}

In: Hello, please tell me recorded solubility for this one: COc1cccc2c1C(=O)c1c(O)c3c(c(O)c1C2=O)C[C@@](O)(C(=O)CO)C[C@@H]3O[C@H]1C[C@H](NC(=O)[C@H](CC(C)C)NC(=O)[C@H](CC(N)=O)NC(=O)[C@H](C)NC(=O)[C@H](C)NC(=O)[C@H](Cc2ccc(O)cc2)NC(=O)CCCCCN2C(=O)C=CC2=O)[C@H](O)[C@H](C)O1 [QHL-132] ({Hexanoyl(6-maleimido)}-YAANL-{Doxorubicin(3'-N)})
Out: > 2 mg/mL

###

assay_summary: Water solubility of freeze-dried compounds in water (observation and HPLC)
Residues, ends and D or L forms follow the SMILES beside them. *: point of attachment. Doxorubicin(3'-N) = COc1cccc2c1C(=O)c1c(O)c3c(c(O)c1C2=O)C[C@@](O)(C(=O)CO)C[C@@H]3O[C@H]1C[C@H](N*)[C@H](O)[C@H](C)O1; Hexanoyl(6-maleimido) = O=C1C=CC(=O)N1CCCCCC(=O)*; Butanoyl(4-maleimido) = O=C1C=CC(=O)N1CCCC(=O)*; Propanoyl(3-maleimido) = O=C1C=CC(=O)N1CCC(=O)*; PEG6 = NCCOCCOCCOCCOCCOCCOCCC(=O)O; PEG4 = NCCOCCOCCOCCOCCC(=O)O; PEG3 = NCCOCCOCCOCCC(=O)O; PEG2 = NCCOCCOCCC(=O)O
# solubility annotations

In: Hello, please tell me recorded solubility for this one: COc1cccc2c1C(=O)c1c(O)c3c(c(O)c1C2=O)C[C@@](O)(C(=O)CO)C[C@@H]3O[C@H]1C[C@H](NC(=O)[C@H](CC(C)C)NC(=O)[C@H](CC(N)=O)NC(=O)[C@H](C)NC(=O)[C@H](C)NC(=O)[C@H](CCC(=O)O)NC(=O)CCOCCOCCNC(=O)CCN2C(=O)C=CC2=O)[C@H](O)[C@H](C)O1 [QHL-039] ({Propanoyl(3-maleimido)-PEG2}-EAANL-{Doxorubicin(3'-N)})
Out: > 20 mg/mL

In: Hello, please tell me recorded solubility for this one: COc1cccc2c1C(=O)c1c(O)c3c(c(O)c1C2=O)C[C@@](O)(C(=O)CO)C[C@@H]3O[C@H]1C[C@H](NC(=O)[C@H](CC(C)C)NC(=O)[C@H](CC(N)=O)NC(=O)[C@H](C)NC(=O)[C@H](C)NC(=O)[C@H](CCC(=O)O)NC(=O)CCOCCOCCOCCNC(=O)CCN2C(=O)C=CC2=O)[C@H](O)[C@H](C)O1 [QHL-045] ({Propanoyl(3-maleimido)-PEG3}-EAANL-{Doxorubicin(3'-N)})
Out: > 20 mg/mL

In: Hello, please tell me recorded solubility for this one: COc1cccc2c1C(=O)c1c(O)c3c(c(O)c1C2=O)C[C@@](O)(C(=O)CO)C[C@@H]3O[C@H]1C[C@H](NC(=O)[C@H](CC(C)C)NC(=O)[C@H](CC(N)=O)NC(=O)[C@H](C)NC(=O)[C@H](C)NC(=O)[C@H](CCC(=O)O)NC(=O)CCOCCOCCOCCOCCNC(=O)CCCN2C(=O)C=CC2=O)[C@H](O)[C@H](C)O1 [QHL-075] ({Butanoyl(4-maleimido)-PEG4}-EAANL-{Doxorubicin(3'-N)})
Out: > 25 mg/mL

In: Hello, please tell me recorded solubility for this one: COc1cccc2c1C(=O)c1c(O)c3c(c(O)c1C2=O)C[C@@](O)(C(=O)CO)C[C@@H]3O[C@H]1C[C@H](NC(=O)[C@H](CC(C)C)NC(=O)[C@H](CC(N)=O)NC(=O)[C@H](C)NC(=O)[C@H](C)NC(=O)[C@H](C)NC(=O)CCCCCN2C(=O)C=CC2=O)[C@H](O)[C@H](C)O1 [QHL-122] ({Hexanoyl(6-maleimido)}-AAANL-{Doxorubicin(3'-N)})
Out: > 10 mg/mL

In: Hello, please tell me recorded solubility for this one: COc1cccc2c1C(=O)c1c(O)c3c(c(O)c1C2=O)C[C@@](O)(C(=O)CO)C[C@@H]3O[C@H]1C[C@H](NC(=O)[C@H](CC(C)C)NC(=O)[C@H](CC(N)=O)NC(=O)[C@H](C)NC(=O)[C@H](C)NC(=O)[C@H](CCC(=O)O)NC(=O)CCOCCOCCOCCOCCOCCOCCNC(=O)CCCN2C(=O)C=CC2=O)[C@H](O)[C@H](C)O1 [QHL-081] ({Butanoyl(4-maleimido)-PEG6}-EAANL-{Doxorubicin(3'-N)})
Out: > 30 mg/mL
